Just for reference, patent US20210246200A1 is where these values come from.

Target: T1, Proleukin® (aldesleukin) (human, UniProt P60568 21-153, limits assumed)
T1 construct: Variant of human wt IL-2 with C145S (C125S on mature IL-2); also called IL-2 (Proleukin®); human IL-2 (Proleukin)
T1 sequence (P60568 other isoform, or with tags, fused parts or gaps limits assumed): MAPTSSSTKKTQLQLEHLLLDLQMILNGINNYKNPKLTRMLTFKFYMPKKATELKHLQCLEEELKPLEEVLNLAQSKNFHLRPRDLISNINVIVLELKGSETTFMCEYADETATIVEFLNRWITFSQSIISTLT
Experiment: ELISA, coated Proleukin, mean of 3 experiments;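 further: binding of anti-human IL-2 antibodies, tested as an 11-point dilution series for 2 hours, to plate-bound IL-2, detected via streptavidin-HRP with absorbance read at 450 nm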
parameter: EC50 (nM)
Give the number; nM is assumed, so skip it.

Previously resolved entries follow.
104344 (antibody, V domains shown, VH1/VK3s) VH: QVQLVQSGAEVKKPGSSVKVSCKASGYAFTNYLIEWVRQAPGQGLEWMGVINPGSGGTNYNEKFKGRVTITADKSTSTAYMELSSLRSEDTAVYYCARWRGDGYYAYFDVWGQGTTVTVSS VL: EIVLTQSPATLSVSPGERATLSCRASQSVSYDGDSYMNWYQQKPGQAPRLLIYAASNLASGIPARFSGSGSGTEFTLTISSLQSEDAAVYYCQQSNEDPYTFGGGTKVEIK :: 0.7
104347 (antibody, V domains shown, VH3s/VK3s) VH: QVQLVESGGGVVQPGRSLRLSCAASGYTFSSYLIEWVRQAPGKGLEWVAVINPGSGGTNYADSVKGRFTISADKSKNTAYLQMNSLRAEDTAVYYCARWRGDGYYAYFDVWGQGTTVTVSS VL: EIVLTQSPATLSVSPGERATLSCRASQSVSYDGDSYMNWYQQKPGQAPRLLIYAASNLASGIPARFSGSGSGTEFTLTISSLQSEDAAVYYCQQSNEDPYTFGGGTKVEIK :: 39
Antibody No: 8 (antibody, human IgG1, kappa, N297A, V domains shown, VK A50S; also called 108923) VH: EVQLVQSGAEVKKPGESLKISCKGSGYAFTNYLIEWVRQMPGKGLEWMGVINPGSGGTNYNEKFKGQVTISADKSISTAYLQWSSLKASDTAMYYCARWRGEGYYAYYDVWGQGTTVTVSS VL: AIRLTQSPSSFSASTGDRVTITCKASQSVDYQGDSYMNWYQQKPGKAPKLLIYSASNLESGVPSRFSGSGSGTDFTLTISSLQSEDFATYYCQQSNEDPYTFGGGTKVEIKR :: 0.05
104349 (antibody, V domains shown, VH5/VK2) VH: EVQLVQSGAEVKKPGESLKISCKGSGYAFTNYLIEWVRQMPGKGLEWMGVINPGSGGTNYNEKFKGQVTISADKSISTAYLQWSSLKASDTAMYYCARWRGDGYYAYFDVWGQGTTVTVSS VL: DIVLTQSPLSLPVTLGQPASISCKASQSVDYDGDSYMNWYQQRPGQSPRLLIYAASNLESGVPDRFSGSGSGTDFTLKISRVEAEDVGVYYCQQSNEDPYTFGGGTKVEIK :: 0.3
104350 (antibody, V domains shown, VH5/VK3s) VH: EVQLVQSGAEVKKPGESLKISCKGSGYAFTNYLIEWVRQMPGKGLEWMGVINPGSGGTNYNEKFKGQVTISADKSISTAYLQWSSLKASDTAMYYCARWRGDGYYAYFDVWGQGTTVTVSS VL: EIVLTQSPATLSVSPGERATLSCRASQSVSYDGDSYMNWYQQKPGQAPRLLIYAASNLASGIPARFSGSGSGTEFTLTISSLQSEDAAVYYCQQSNEDPYTFGGGTKVEIK :: 0.8
104349_VH5_VK2D28Q (antibody, V domains shown, Human IgG1 Fc domain with the N297A point mutation) VH: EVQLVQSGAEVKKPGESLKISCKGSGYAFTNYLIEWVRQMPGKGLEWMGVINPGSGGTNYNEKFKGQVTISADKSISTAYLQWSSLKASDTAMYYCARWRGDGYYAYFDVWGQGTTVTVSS VL: DIVLTQSPLSLPVTLGQPASISCKASQSVDYQGDSYMNWYQQRPGQSPRLLIYAASNLESGVPDRFSGSGSGTDFTLKISRVEAEDVGVYYCQQSNEDPYTFGGGTKVEIK :: 0.43

Query: What does the record list as EC50 for 104343 (antibody, human IgG1, kappa, N297A, V domains shown, VH1/VK2, human IgG1 N297A) VH: QVQLVQSGAEVKKPGSSVKVSCKASGYAFTNYLIEWVRQAPGQGLEWMGVINPGSGGTNYNEKFKGRVTITADKSTSTAYMELSSLRSEDTAVYYCARWRGDGYYAYFDVWGQGTTVTVSS VL: DIVLTQSPLSLPVTLGQPASISCKASQSVDYDGDSYMNWYQQRPGQSPRLLIYAASNLESGVPDRFSGSGSGTDFTLKISRVEAEDVGVYYCQQSNEDPYTFGGGTKVEIKR ?
Result: 0.3

Query: Give its EC50 value. Item: 104349_VH5D98E_VK2 (antibody, V domains shown, Human IgG1 Fc domain with the N297A point mutation) VH: EVQLVQSGAEVKKPGESLKISCKGSGYAFTNYLIEWVRQMPGKGLEWMGVINPGSGGTNYNEKFKGQVTISADKSISTAYLQWSSLKASDTAMYYCARWRGEGYYAYFDVWGQGTTVTVSS VL: DIVLTQSPLSLPVTLGQPASISCKASQSVDYDGDSYMNWYQQRPGQSPRLLIYAASNLESGVPDRFSGSGSGTDFTLKISRVEAEDVGVYYCQQSNEDPYTFGGGTKVEIK
Result: 0.56

Query: Consider the binder 104345 (antibody, V domains shown, VH3s/VK1) VH: QVQLVESGGGVVQPGRSLRLSCAASGYTFSSYLIEWVRQAPGKGLEWVAVINPGSGGTNYADSVKGRFTISADKSKNTAYLQMNSLRAEDTAVYYCARWRGDGYYAYFDVWGQGTTVTVSS VL: AIRLTQSPSSFSASTGDRVTITCKASQSVDYDGDSYMNWYQQKPGKAPKLLIYAASNLESGVPSRFSGSGSGTDFTLTISSLQSEDFATYYCQQSNEDPYTFGGGTKVEIK and give its measured EC50.
Result: 2.9

Query: Quick check: EC50 of Antibody No: 13 (antibody, human IgG1, kappa, N297A, V domains shown, VH N58Y; VK A50S; also called 108925) VH: EVQLVQSGAEVKKPGESLKISCKGSGYAFTNYLIEWVRQMPGKGLEWMGVINPGSGGTYYNEKFKGQVTISADKSISTAYLQWSSLKASDTAMYYCARWRGEGYYAYFDVWGQGTTVTVSS VL: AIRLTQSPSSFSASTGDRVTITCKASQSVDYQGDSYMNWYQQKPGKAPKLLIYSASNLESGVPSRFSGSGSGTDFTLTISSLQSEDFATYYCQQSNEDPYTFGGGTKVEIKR ?
Result: 0.06
